Test system: SR leukemia
ASSAY INFO: NCI-60 one-dose screen, 48 h
STUDY CONDITIONS: 10 µM unless noted
This is part of a sample that, as a whole, favours compounds with a hit. Of some 83,000 tested, about 20% had one in any assay. Activity calls are given as the source filed them. Rule for the calls: active = growth percent below 10; inactive = the rest.
Returns: one label drawn from True for active, False for inactive

// query Call for entry O=[N+]([O-])c1cc2c(cc1Br)C1C(C3C2C(Cl)(Cl)C(Cl)=C(Cl)C3(Cl)Cl)C(Cl)(Cl)C(Cl)=C(Cl)C1(Cl)Cl (stereo unspecified) :
// result False

// query Call for entry Cc1c(C)n(CC(O)CNC2CCCCC2C)c2ccccc12 (stereo unspecified) :
// result True

// query Call for entry CCOC(=O)c1sc(NC(=O)CN2CCC(Cc3ccccc3)CC2)nc1C :
// result False

// query Call for entry O=C(NC1CC1)c1cc2n(n1)CC(c1ccccc1)N2 (stereo unspecified) :
// result False

// query Call for entry N#Cc1ccc(C(F)(F)F)nc1N1CCC(C(=O)Nc2ccc(Cl)cc2)CC1 :
// result False

// query Call for entry COc1cccc2c(=O)c3c(sc12)c(NCCN(C)C)nc1ccccc13 :
// result True

// query Call for entry NC(=O)c1nc2c([nH]c1=O)CCCC2 :
// result False

// query Call for entry O=S(=O)(Nc1ncccn1)c1ccc(Nc2ccc3nnc(-c4ccncc4)n3n2)cc1 :
// result False

// query Call for entry COc1cc2cc(Oc3ccc(NC(=O)Nc4cccc(C(F)(F)F)c4)cc3)c(C)nc2cc1OCCN1CCCCC1 :
// result True

// query Call for entry COc1ccc(/C=C2\CN(Cc3cn(CCCNc4ccnc5cc(Cl)ccc45)nn3)C/C(=C\c3ccc(OC)c(OC)c3)C2=O)cc1OC :
// result True

// query Call for entry COc1ccc(/C=N/OCC(O)CN2CCC(O)CC2)cc1OC1CCCC1 (stereo unspecified) :
// result False

// query Call for entry O=C1c2cc(S(=O)(=O)O)ccc2C(=O)c2c1cccc2[N+](=O)[O-] :
// result False

// query Call for entry COc1cc(/C=C/c2cc(/C=C/c3ccc(O)c(OC)c3)n(-c3ccccc3)n2)ccc1O :
// result True

// query Call for entry O=C(CC(O)c1ccccc1)Nc1ccccn1 (stereo unspecified) :
// result False

// query Call for entry Clc1ccc2c(N3CCN(c4ccnc(NC5CCCCC5)n4)CC3)ccnc2c1 :
// result True

// query Call for entry CC(=O)OCC1OC([S-])C(OC(C)=O)C(OC(C)=O)C1OC(C)=O.[Au+].c1ccc(CN2[CH-]N(Cc3ccccc3)C(c3ccccc3)=C2c2ccccc2)cc1 :
// result True

###

Test system: HCT-15 colon
ASSAY INFO: NCI-60 one-dose screen, 48 h (100 = growth as untreated, 0 = no growth, -100 = all killed)
STUDY CONDITIONS: 10 µM unless noted
The panel holds about 83,000 compounds, 20% with a hit somewhere; the sample as a whole holds those more often. Calls of active or inactive are those of the source. How the source made its calls: active means growth percent below 10; inactive means the rest.
METRIC NAME: growth

// query Need growth of COc1ccc(/C=C2\CN(Cc3cn(CCCNc4ccnc5cc(Cl)ccc45)nn3)C/C(=C\c3ccc(OC)c(OC)c3)C2=O)cc1OC , thanks.
// result 9.96% (active)

// query Need growth of Cc1ccc(C2SCC(=O)N2NC(=O)c2[nH]c3ccc(F)cc3c2-c2ccccc2)cc1 (stereo unspecified) , thanks.
// result 89.8% (inactive)

// query Need growth of Cc1ccccc1-n1nnc(C(=O)Nc2ccc(-c3ccccc3)cn2)c1C , thanks.
// result 39.8% [50 µM] (inactive)

// query Need growth of CCCCCCCCCCCCCCCC[N+]1(C)CCOCC1 , thanks.
// result 40.4% (inactive)

// query Need growth of CN1CCN(C)c2cncc(Br)c2C1=O , thanks.
// result 105% (inactive)

// query Need growth of COc1cc(C2C3=C(COC3=O)N(CCO)c3cc4c(cc32)OCO4)cc(OC)c1O (stereo unspecified) , thanks.
// result 44.8% (inactive)
